- TARGET OR TEST SYSTEM: T1, AfXPB (Archaeoglobus fulgidus, UniProt O29889 1-452)
- T1 sequence: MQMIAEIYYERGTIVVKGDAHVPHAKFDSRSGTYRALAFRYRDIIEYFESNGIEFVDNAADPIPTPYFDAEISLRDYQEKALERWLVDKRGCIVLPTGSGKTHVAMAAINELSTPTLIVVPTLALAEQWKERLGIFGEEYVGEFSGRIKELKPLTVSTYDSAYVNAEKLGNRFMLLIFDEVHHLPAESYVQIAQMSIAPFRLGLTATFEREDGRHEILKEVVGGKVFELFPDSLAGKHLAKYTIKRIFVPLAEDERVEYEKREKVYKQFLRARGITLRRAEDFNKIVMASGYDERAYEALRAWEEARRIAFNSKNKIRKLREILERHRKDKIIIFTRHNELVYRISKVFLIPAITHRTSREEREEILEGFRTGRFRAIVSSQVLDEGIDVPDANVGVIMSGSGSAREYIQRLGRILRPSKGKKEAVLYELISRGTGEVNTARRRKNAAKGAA
- MEASUREMENT NOTES: DNA electrochemistry
PARAMETER MEASURED: pKd
Remember the convention: pKd equals -log10 of concentration in molar.

Report measured pKd; entry is 17mer well-matched duplex (WM) (dsDNA, strand 1 5' C6 thiol on gold electrode; strand 2 5'-terminal T is Nile Blue-modified (5-acrylate dU)) DNA 1: GAGATATAAAGCACGCA DNA 2: TGCGTGCTTTATATCTC
7.66
